Cited source: patent US20240383875A1

Biological target: SIK3 (Homo sapiens)
Sequence (Q9Y2K2 whole entry): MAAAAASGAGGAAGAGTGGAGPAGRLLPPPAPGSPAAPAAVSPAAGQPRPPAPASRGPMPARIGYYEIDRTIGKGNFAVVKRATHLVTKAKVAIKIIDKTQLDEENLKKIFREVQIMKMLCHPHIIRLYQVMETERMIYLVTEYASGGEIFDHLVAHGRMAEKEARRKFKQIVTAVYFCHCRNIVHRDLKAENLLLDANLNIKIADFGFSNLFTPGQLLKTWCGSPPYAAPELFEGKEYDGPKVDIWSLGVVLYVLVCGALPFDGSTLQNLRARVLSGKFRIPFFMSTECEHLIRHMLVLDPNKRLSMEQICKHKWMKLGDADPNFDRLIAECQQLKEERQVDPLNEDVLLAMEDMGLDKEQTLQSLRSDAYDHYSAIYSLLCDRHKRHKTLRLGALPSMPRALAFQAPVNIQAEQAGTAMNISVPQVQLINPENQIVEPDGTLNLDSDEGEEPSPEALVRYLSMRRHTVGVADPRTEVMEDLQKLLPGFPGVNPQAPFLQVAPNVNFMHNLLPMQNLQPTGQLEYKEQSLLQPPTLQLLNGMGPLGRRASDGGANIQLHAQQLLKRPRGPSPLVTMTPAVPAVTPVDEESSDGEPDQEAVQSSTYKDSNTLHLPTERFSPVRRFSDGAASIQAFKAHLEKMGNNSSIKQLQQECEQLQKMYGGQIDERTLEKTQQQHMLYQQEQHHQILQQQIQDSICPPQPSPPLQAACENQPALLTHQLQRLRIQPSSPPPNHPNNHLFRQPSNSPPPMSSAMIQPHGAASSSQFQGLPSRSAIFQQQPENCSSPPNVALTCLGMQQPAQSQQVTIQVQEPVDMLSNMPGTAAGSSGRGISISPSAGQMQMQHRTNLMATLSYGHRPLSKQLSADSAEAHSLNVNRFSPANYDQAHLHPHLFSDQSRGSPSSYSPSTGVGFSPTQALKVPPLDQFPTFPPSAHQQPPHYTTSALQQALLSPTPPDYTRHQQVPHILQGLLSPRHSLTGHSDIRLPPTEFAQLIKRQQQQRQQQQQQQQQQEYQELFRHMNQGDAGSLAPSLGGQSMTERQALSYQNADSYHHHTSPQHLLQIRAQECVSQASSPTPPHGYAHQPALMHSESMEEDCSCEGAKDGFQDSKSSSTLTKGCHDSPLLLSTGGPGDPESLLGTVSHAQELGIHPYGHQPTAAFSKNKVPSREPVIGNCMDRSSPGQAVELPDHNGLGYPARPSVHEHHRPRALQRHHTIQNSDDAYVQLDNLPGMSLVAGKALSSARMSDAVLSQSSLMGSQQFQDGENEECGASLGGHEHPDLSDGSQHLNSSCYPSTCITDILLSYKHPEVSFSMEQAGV
Assay: Enzymatic activity assay SIK3, RapidFire mass spectrometry (phosphorylation of CHK-peptide)
Assay type: biochemical
Conditions: RapidFire MS, inhibition of SIK3; read-out: SIK3 RF IC50
I'd appreciate it if you marked entries TRUE when IC50 is lower than 30 nM and FALSE when it is not.

# check: IC50 < 30 nM for Cc1cc(C#N)nn1-c1nc(-n2cnc3cc(F)c(Nc4ccc(F)c(F)c4F)cc32)ccc1C(C)O (stereo not shown) TRUE

Another compound to check: Cc1cc(C(F)F)nn1-c1nc(-n2cnc3cc(F)c(Nc4ccc(Cl)nn4)cc32)ccc1C(C)O (stereo not shown) FALSE

And for Cc1ccc(Nc2ccc3c(c2)ncn3-c2ccc(C(C)O)c(N3CCC4(C3)CC4(F)F)n2)nn1 (stereo not shown) ? TRUE

Okay, and `Cc1ccc(Nc2cc3ncn(-c4ccc([C@@H](C)O)c(-n5nc(C#N)cc5C)n4)c3cc2OC(F)F)nn1` ? FALSE

Now the compound Cc1cnc(Nc2ccc3c(c2)ncn3-c2ccc(C(C)O)c(-n3nc(C#N)cc3C)n2)cn1 (stereo not shown) TRUE

Same for Cc1cc(C#N)nn1-c1nc(-n2cnc3ccc(CN4CCCC4=O)cc32)ccc1C(C)O (stereo not shown) FALSE

Entry Cc1cc(C#N)nn1-c1nc(-n2cnc3cc(OC4CCN(C5COC5)CC4)ccc32)ccc1C(C)O (stereo not shown) please FALSE

###

Target: SIK2 (Homo sapiens)
Sequence (Q9H0K1 whole entry): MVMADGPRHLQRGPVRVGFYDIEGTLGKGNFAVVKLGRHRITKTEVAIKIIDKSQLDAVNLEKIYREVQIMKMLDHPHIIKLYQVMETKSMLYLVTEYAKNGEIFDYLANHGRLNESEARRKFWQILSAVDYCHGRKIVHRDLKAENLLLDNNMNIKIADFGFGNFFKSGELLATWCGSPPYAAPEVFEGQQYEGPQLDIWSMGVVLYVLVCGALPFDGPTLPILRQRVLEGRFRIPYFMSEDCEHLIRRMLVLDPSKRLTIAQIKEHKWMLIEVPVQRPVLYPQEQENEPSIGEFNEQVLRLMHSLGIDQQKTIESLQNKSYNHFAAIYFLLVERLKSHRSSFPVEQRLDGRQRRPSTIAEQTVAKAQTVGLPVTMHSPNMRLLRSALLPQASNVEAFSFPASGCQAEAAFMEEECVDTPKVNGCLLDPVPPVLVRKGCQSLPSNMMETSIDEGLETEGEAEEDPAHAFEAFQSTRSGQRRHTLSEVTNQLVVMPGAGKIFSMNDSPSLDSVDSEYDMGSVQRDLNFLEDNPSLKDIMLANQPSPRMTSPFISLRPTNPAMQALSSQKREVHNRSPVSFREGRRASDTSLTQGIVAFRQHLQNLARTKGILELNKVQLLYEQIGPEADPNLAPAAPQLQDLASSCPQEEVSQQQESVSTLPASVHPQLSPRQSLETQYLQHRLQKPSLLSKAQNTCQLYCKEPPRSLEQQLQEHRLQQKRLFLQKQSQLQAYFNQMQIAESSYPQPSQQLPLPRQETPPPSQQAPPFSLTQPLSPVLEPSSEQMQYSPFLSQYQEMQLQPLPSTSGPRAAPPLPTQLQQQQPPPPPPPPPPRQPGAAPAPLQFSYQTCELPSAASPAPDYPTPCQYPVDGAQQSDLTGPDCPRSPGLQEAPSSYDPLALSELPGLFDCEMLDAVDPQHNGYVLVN
pIC50: −log10 of the molar value.
// map pIC50 to label using 0 (below 7), 1 (7 to below 8), 2 (8 or more)

Answered cases to consult:
{"MOLECULE": "COc1cc2ncn(-c3ccc(CO)c(NCCCCCO)n3)c2cc1OC [Example 32]", "ASSAY_SYSTEM": "SIK2 (Homo sapiens)", "ASSIGNED_LABEL": 0}
{"MOLECULE": "Cc1ccc(Nc2cc3ncn(-c4ccc([C@H](C)O)c(-n5nc(OC(F)F)cc5C)n4)c3cc2OC2COC2)nn1 [Example 383]", "ASSAY_SYSTEM": "SIK2 (Homo sapiens)", "ASSIGNED_LABEL": 2}
{"MOLECULE": "Cc1ccc(Nc2ccc3c(c2)ncn3-c2ccc(C(C)O)c(C(=O)NCC(F)(F)F)n2)nn1 (stereo not shown) [Example 124, formic acid]", "ASSAY_SYSTEM": "SIK2 (Homo sapiens)", "ASSIGNED_LABEL": 1}
{"MOLECULE": "Cc1ccc(Nc2ccc3c(c2)ncn3-c2ccc(C(C)O)c(-c3cc(C(F)(F)F)ncc3C)n2)nn1 (stereo not shown) [Example 332]", "ASSAY_SYSTEM": "SIK2 (Homo sapiens)", "ASSIGNED_LABEL": 2}
{"MOLECULE": "COc1cc2ncn(-c3ccc(C(C)O)c(-c4cccc(Cl)c4)n3)c2cc1OC (stereo not shown) [Example 19]", "ASSAY_SYSTEM": "SIK2 (Homo sapiens)", "ASSIGNED_LABEL": 1}

Consider now this further molecule.
Please let me know in which category the item Cc1cc(C#N)nn1-c1nc(-n2cnc3cc(Nc4cccn(C)c4=O)ccc32)ccc1C(C)O (stereo not shown) [Example 333] belongs. 1

###

Target: UniProt:Q9H0K1
Assay: Enzymatic activity assay SIK2, RapidFire mass spectrometry (phosphorylation of CHK-peptide)
Format: biochemical
Settings: RapidFire MS, inhibition of SIK2; read-out: SIK2 RF IC50
Reported pIC50 is given for each of the following compounds.
Scale: pIC50 equals -log10([C]), with [C] in mol/L.

{"COMPOUND": "COc1c(O)cccc1-c1nc(-n2cnc3cc(Nc4ccc(C)nn4)ccc32)ccc1C(C)O (stereo not shown) [Example 203, formic acid]", "pIC50": 6.28}
{"COMPOUND": "Cc1ccc(Nc2ccc3c(c2)ncn3-c2ccc(C(C)O)c(-c3cc(F)ncc3C)n2)nn1 (stereo not shown) [Example 168]", "pIC50": 7.40}

So what's the measured pIC50 for this one? Cc1ccc(Nc2cc3ncn(-c4ccc([C@H](C)O)c(-n5nc(C#N)cc5C)n4)c3cc2OC(F)F)nn1 [Example 402] 9.70

Same lookup for Cc1ccc(Nc2ccc3c(c2)ncn3-c2ccc(C(C)O)c(-n3nc(OC(F)F)cc3C)n2)nn1 (stereo not shown) [Example 290] , please. 9.22
